What RT (retention time during reverse phase HPLC as a measure of hydrophobicity) was measured for each of the following?
ASSAY_DETAILS: Hydrophobicity: retention time during reverse phase HPLC
Format: physicochemical
REPORTED_CONDITIONS: Acquity CSH C18; pH 7.2 buffer/CH3CN gradient; 40° C.
*: point of attachment. Lauroyl = CCCCCCCCCCCC(=O)*; Decanoyl = CCCCCCCCCC(=O)*
Answers are plain numbers, in min.

Solved entries (count: 5):
SUBSTANCE	VALUE_OBSERVED
N-dodecanoyl-Met-Pro-Tyr-OH [Example 123]	7.23
N-dodecanoyl-Gly-Pro-Tyr-OH [Example 118]	5.35
N-dodecanoyl-Ala-Gly-Pro-Tyr-OH (Lauroyl-AGPY-OH; SMILES CCCCCCCCCCCC(=O)N[C@@H](C)C(=O)NCC(=O)N1CCC[C@H]1C(=O)N[C@@H](Cc1ccc(O)cc1)C(=O)O) [Example 78]	5.59
N-dodecanoyl-Thr-Ala-Pro-Tyr-OH (Lauroyl-TAPY-OH; SMILES CCCCCCCCCCCC(=O)N[C@H](C(=O)N[C@@H](C)C(=O)N1CCC[C@H]1C(=O)N[C@@H](Cc1ccc(O)cc1)C(=O)O)[C@@H](C)O) [Example 53]	5.52
N-dodecanoyl-Ile-Pro-Tyr-OH [Example 120]	7.82

Please go through the list and note RT (retention time during reverse phase HPLC as a measure of hydrophobicity) for each substance.
1. N-dodecanoyl-His-Ala-Ala-Pro-Tyr-OH [Example 38]
2. N-dodecanoyl-Arg-Ala-Ala-Pro-Tyr-OH [Example 91]
3. N-dodecanoyl-βAla-Ala-Pro-Phe-OH [Example 8]
4. N-dodecanoyl-Ala-Met-Pro-Tyr-OH (Lauroyl-AMPY-OH; SMILES CCCCCCCCCCCC(=O)N[C@@H](C)C(=O)N[C@@H](CCSC)C(=O)N1CCC[C@H]1C(=O)N[C@@H](Cc1ccc(O)cc1)C(=O)O) [Example 83]
5. N-dodecanoyl-Ala-Trp-Pro-Tyr-OH (Lauroyl-AWPY-OH; SMILES CCCCCCCCCCCC(=O)N[C@@H](C)C(=O)N[C@@H](Cc1c[nH]c2ccccc12)C(=O)N1CCC[C@H]1C(=O)N[C@@H](Cc1ccc(O)cc1)C(=O)O) [Example 88]
6. N-decanoyl-Ala-Ala-Pro-Phe-OH (Decanoyl-AAPF-OH) [Example 33]

Result:
1: 4.94; 2: 4.63; 3: 6.13; 4: 6.88; 5: 7.88; 6: 4.93

Please go through the list and note RT (retention time during reverse phase HPLC as a measure of hydrophobicity) for each substance.
1. N-dodecanoyl-Leu-Ala-Ala-Pro-Tyr-OH [Example 42]
2. N-dodecanoyl-Ala-Ala-Ala-Tyr-OH (Lauroyl-AAAY-OH; SMILES CCCCCCCCCCCC(=O)N[C@@H](C)C(=O)N[C@@H](C)C(=O)N[C@@H](C)C(=O)N[C@@H](Cc1ccc(O)cc1)C(=O)O) [Example 57]

Result:
1: 7.87; 2: 5.73

----------
ASSAY_DETAILS: Stability of N-terminally acylated peptides or oligopeptides in GI juice
Format: in vitro ADME
REPORTED_CONDITIONS: GI juice (jejunum extract); degradation of the compound itself in jejunum extract from rat; read-out: t 1/2 in rat GI juice
Starred links: 1 amine or outer side, 2 acyl side, 3 side chain; linkers in the order of their positions; H or OH if unused. Non-standard residues stand in square brackets, D forms with d. Residues, ends and D or L forms follow the SMILES beside them. *: point of attachment. γGlu = O=C(O)[C@H](CCC(=O)[*:2])N[*:1]; Myristoyl = CCCCCCCCCCCCCC(=O)*; Lauroyl = CCCCCCCCCCCC(=O)*
MEASURED_METRIC: half-life (min)
Give bare numbers, in min.

Solved entries (count: 2):
COMPOUND	VALUE_OBSERVED
CCCCCCCCCCCCCC(=O)N[C@@H](Cc1c[nH]cn1)C(=O)N[C@@H](C)C(=O)N[C@@H](CCCNC(=N)N)C(=O)N1CCC[C@H]1C(=O)N[C@@H](Cc1ccccc1)C(=O)O [Example 178, N-tetradecanoyl-His-Ala-Arg-Pro-Phe-OH] (Myristoyl-HARPF-OH)	4.5
CCCCCCCCCCCCCC(=O)N[C@@H](CCC(=O)N[C@@H](C)C(=O)N1CCC[C@H]1C(=O)N[C@@H](Cc1ccccc1)C(=O)O)C(=O)O [Example 23, N-tetradecanoyl-γGlu-Ala-Pro-Phe-OH] ({Myristoyl-γGlu}-Ala-Pro-Phe-OH)	4.4

Please go through the list and note half-life for each compound.
1. CCCCCCCCCCCC(=O)N[C@@H](C)C(=O)N[C@@H](C)C(=O)N1CCC[C@H]1C(=O)N[C@@H](Cc1ccccc1)C(=O)O [Example 34, N-dodecanoyl-Ala-Ala-Pro-Phe-OH] (Lauroyl-AAPF-OH)
2. CCCCCCCCCCCCCC(=O)N[C@H](C)C(=O)N[C@H](C)C(=O)N1CCC[C@@H]1C(=O)N[C@H](Cc1ccccc1)C(=O)O [Example 2, N-tetradecanoyl-DAla-DAla-DPro-DPhe-OH] (Myristoyl-[dA][dA][dP][dF]-OH)

Result:
[3.5, 610]
